Measured values drawn from BindingDB's records for doi:10.1007/s002100000327 for this set.

ASSAY READOUT: Ki (µM)
Only the number, expressed in µM, is required.

The value of Ki recorded for CC(=O)N[C@@H](CCCN=C(N)N)C(=O)N[C@H](CC1CCCCC1)C(=O)N[C@H]1CC[C@@H]2SC[C@@H](C(=O)N[C@H](CCCN=C(N)N)C(=O)N[C@H](Cc3ccc(Cl)cc3)C(N)=O)N2C1=O when tested on Kappa-type opioid receptor (Homo sapiens) reads 0.0115

Value (Ki, Kappa-type opioid receptor (Homo sapiens)) for record C[C@H](NC(=O)CNC(=O)[C@@H](NC(=O)[C@H](Cc1ccccc1)NC(=O)CNC(=O)CNC(=O)CNCc1ccccc1)[C@@H](C)O)C(=O)N[C@@H](CCCN=C(N)N)C(=O)N[C@@H](CCCCN)C(=O)N[C@@H](CO)C(=O)N[C@@H](C)C(=O)N[C@@H](CCCN=C(N)N)C(=O)N[C@@H](CCCCN)C(N)=O = 1.1
